Where do these numbers come from? They come from PubChem BioAssay (NCATS).

Test: Primary qHTS for inhibitors of nuclear receptor binding SET domain protein 2 (NSD2) in an RCH-ACV wild type WT cells (2C) (AID 1645877); also: nearly all actives have a fitted effect of over 70% in size
Conditions: RCH-ACV (leukaemia line) NSD2 WT (2C) viability, CellTiter-Glo, 72 h; series mostly up to 44.9 µM
Inconclusive results are not listed. Active and inactive are the calls of the source. Calls follow the shape of the dose curve; as a rule, active = well fitted inhibition curve with a large enough effect; inconclusive = small, poorly fitted or top-dose-only effect; inactive = no such curve, though single readings can be large or run the other way.
Outcome codes: true for active, false for inactive

C=C(C)C(=O)O[C@H]1C[C@@](C)(O)C(=O)CC(O)/C(C)=C\[C@H]2OC(=O)C(=C)[C@H]12 (some centres undefined) ... true
C/C(=C\CCC(C)CCO)C(=O)O[C@@H]1[C@@H](O)[C@H](OC2OC=C(C(=O)O)C3CCC(C)(O)C23)O[C@H](CO)[C@H]1O (some centres undefined) ... false
C=CC1(C)C=C2C(=O)OC(=O)C3=C(CCCC3(C)C)C2(O)CC1 (centres undefined) ... false
O=C(O)/C=C/c1cc2c(cc1O[C@@H]1O[C@H](CO)[C@@H](O)[C@H](O)[C@H]1O)OCO2 ... false
O=C(O)c1cc(-c2c(-c3ccccc3)nn3ccccc23)n[nH]c1=O ... false
Cc1cc(Nc2ncc3cc(-c4c(Cl)cccc4Cl)c(=O)n(C)c3n2)ccc1F ... true
CC(=O)OC1C[C@]2(C)C(O)CC(C)=C[C@H](OC(=O)c3ccc(O)cc3)C2[C@]1(O)C(C)C (some centres undefined) ... false
CN1c2ccccc2C(=O)N2CCC3c4ccccc4NC3C21 (centres undefined) ... true
C/C=C/c1ccc(O[C@@H]2O[C@H](CO)[C@@H](O)[C@H](O)[C@H]2O)c(OC)c1 ... false
O=C1NC2CCc3nc4ccccc4c(=O)n3C2=Nc2ccccc21 (centres undefined) ... false
C=C(C)C(=O)OC1C(OC(C)=O)/C(C=O)=C\CC/C(CO)=C/C2OC(=O)C(=C)C21 (centres undefined) ... true
CC(C)(O)/C=C/C1=CC(=O)[C@@](C)(O)C[C@H]1O ... false
NC1CCC(Nc2cc(-c3cccc(NCc4cccc(F)c4)n3)c(Cl)cn2)CC1 (centres undefined) ... true
CCC(CC)C(=O)Nc1sc2c(c1C#N)CCC(C(C)(C)CC)C2 (centres undefined) ... false
O=C(OC1C=C(CO)C2C(OC3OC(CO)C(O)C(O)C3O)OC=CC12)c1ccc(O)cc1 (centres undefined) ... false
CC1CCC2(C(=O)O)CCC3(C)C(=CCC4C5(C)CCC(O)C(C)(CO)C5CCC43C)C2C1(C)O (centres undefined) ... false
CC(/C=C/C1=CC2=CC(=O)C(C)(O)C(O)C2=CO1)=C\C(C)CCO (centres undefined) ... false
OC[C@H]1O[C@@H](OCCc2ccc(O)cc2)[C@H](O[C@@H]2OC[C@](O)(CO)[C@H]2O)[C@@H](O)[C@@H]1O ... false
Cc1[nH]c2ccccc2c1CCNC(=O)c1ccccc1F ... false
